measurement-protocol: chemical genetic growth profiling, strain panel (AID 1159580);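 note: tested at 20 µM; growth read once vehicle control cultures reached saturation at 30 °C; 1 = growth at the plate median or of vehicle wells; lower values mean less growth of the strain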
measurement-conditions: S. cerevisiae deletion strains, growth OD, locus YDL134C, strain PPH21, active compounds read low
Out of some 5,500 compounds screened, about 2,000 (36%) were called active. Another 18% or so got no clear call; they are omitted. This is one part of the list.
Known normalized growth of a selection of compounds
property: normalized growth

                                   compound               val
0  C=CCSCC1Nc2cc(Cl)c(S(N)(=O)=O)cc2S(=O)(=O)N1 (stereo unspecified)   1.01 (inactive)
1                   CCN(CC)C(=O)c1cccc(C)c1   1.01 (inactive)
2  C=C1CCC2C(CC2(C)C)C(=C)CC/C1=N\O (stereo unspecified)   1.01 (inactive)
3                      O=c1cc[nH]c(=S)[nH]1   1.02 (inactive)
4  COC(=O)C[C@H]1C(C)(C)C(=O)[C@@H]2CC3=C(CC[C@]4(C)C3=CC(=O)O[C@H]4c3ccoc3)[C@@]1(C)C2=O      1 (inactive)
5                         NC(=O)c1cccc(N)c1  0.999 (inactive)

----------
measurement-protocol: chemical genetic growth profiling, strain panel (AID 1159580);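 note: tested at 20 µM; growth read once vehicle control cultures reached saturation at 30 °C; 1 = growth at the plate median or of vehicle wells; lower values mean less growth of the strain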
measurement-conditions: S. cerevisiae deletion strains, growth OD, locus YBR279W, strain paf1, active compounds read low
Screen size: about 5,500 compounds; about 2,000 (36%) were called active. Inconclusive results (about 18%) are left out. This is one part of the list.
Known normalized growth of a selection of compounds
property: normalized growth

>>> df
                                    compound    val
 0  C=C1CCC2C(CC2(C)C)C(=C)CC/C1=N\O (configuration not stated)   1.01
 1  CC(C)(C)CC(C)(C)c1ccc(O)c(Cc2ccc(Cl)cc2Cl)c1   1.02
 2  O=C1[C@H](CCC(O)c2ccc(F)cc2)[C@@H](c2ccc(O)cc2)N1c1ccc(F)cc1 (some centres not stated)  0.987
 3  C[N+]1(C)C2CC(OC(=O)[C@@H](CO)c3ccccc3)CC1C1OC12 (some centres not stated)  0.986
 4                               OCc1ccccc1O   1.03
 5  CCCC(=O)O[C@]1(C(=O)CO)CCC2[C@@H]3CCC4=CC(=O)CC[C@]4(C)C3[C@@H](O)C[C@@]21C (some centres not stated)  0.996
 6        O=C(O)CN1C(=O)c2cccc3cccc(c23)C1=O  0.978
 7  C=C1C(=O)O[C@@H]2C[C@@]3(C)CCC[C@H](C)C3=C[C@H]12   0.88
 8  COc1ccc(CCN2CCC(Nc3nc4ccccc4n3Cc3ccc(F)cc3)CC2)cc1  0.954
 9           Cc1cc(-c2ccccc2)nnc1NCCN1CCOCC1  0.986
10    OCCOCCN1CCN(C2=Nc3ccccc3Sc3ccccc32)CC1   1.01
11                         NC(=O)c1cccc(N)c1   0.99
12                   Clc1cccc(Cl)c1NC1=NCCN1   1.01
13                    Cc1cccc(C)c1NC1=NCCCS1      1
14  CC(C)C(C)/C=C/C(C)[C@H]1CCC2C3=CCC4CC(=O)CC[C@]4(C)C3CC[C@@]21C (some centres not stated)      1
15                  CCNC(=O)CC[C@H](N)C(=O)O      1
16  NS(=O)(=O)c1cc2c(cc1Cl)NC(C(Cl)Cl)NS2(=O)=O (configuration not stated)  0.984
17  CO[C@@]1(NC(=O)CSCC#N)C(=O)N2C(C(=O)O)=C(CSc3nnnn3C)CSC21 (some centres not stated)  0.981
18  CC(C)C(=O)Nc1ccc([N+](=O)[O-])c(C(F)(F)F)c1   1.02
19           CC(C)NC[C@H](O)COc1cccc2ccccc12   0.99
20  C=C1CCC(C2CC(=O)OC2=O)C(=O)CCC2C1CC2(C)C (configuration not stated)   1.01
21           CC(C)[C@@H]1CC[C@@H](C)C[C@H]1O  0.998

----------
measurement-protocol: chemical genetic growth profiling, strain panel (AID 1159580);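 note: tested at 20 µM; growth read once vehicle control cultures reached saturation at 30 °C; 1 = growth at the plate median or of vehicle wells; lower values mean less growth of the strain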
measurement-conditions: S. cerevisiae deletion strains, growth OD, locus YKL160W, strain elf1, active compounds read low
In all, about 5,500 compounds went through this assay and about 2,000 (36%) were called active. About 18% were inconclusive and are not listed. The list shows a part of the results.
Known normalized growth of a selection of molecules
property: normalized growth

In [3]: df
Out[3]:
                                   molecule           property    val
0               NC(N)=NS(=O)(=O)c1ccc(N)cc1  normalized growth  0.996
1  CC(C)C(C)/C=C/C(C)[C@H]1CCC2C3=CCC4CC(=O)CC[C@]4(C)C3CC[C@@]21C (some centres not stated)  normalized growth   1.01
2                    O=C1NC(=O)C(=O)C(=O)N1  normalized growth  0.989
3  C=C1CCC(OC(C)=O)/C(C)=C/C[C@@H]2[C@@H]1CC2(C)C (some centres not stated)  normalized growth      1
4  CC(C)C(C)/C=C/C(C)C1CCC2C3=CC=C4CC(O)CCC4(C)C3CCC21C (configuration not stated)  normalized growth  0.989
5  CC1(C)O[C@H]2[C@H](O)C[C@](O)(C(N)=O)C[C@H]2O1  normalized growth      1
6  CC[N+](CC)(CC)CCOc1cccc(OCC[N+](CC)(CC)CC)c1OCC[N+](CC)(CC)CC  normalized growth   1.04

----------
measurement-protocol: chemical genetic growth profiling, strain panel (AID 1159580);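 note: tested at 20 µM; growth read once vehicle control cultures reached saturation at 30 °C; 1 = growth at the plate median or of vehicle wells; lower values mean less growth of the strain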
measurement-conditions: S. cerevisiae deletion strains, growth OD, locus YDR101C, strain arx1, active compounds read low
Screen size: about 5,500 compounds; about 2,000 (36%) were called active. About 18% were inconclusive and are not listed. The list shows a part of the results.
property: normalized growth

compound	property	val
C=C1CCC2C(CC2(C)C)C(=C)CC/C1=N\O (stereo not given)	normalized growth	0.947
C#CCCCCCCCCCCCC(O)CC(O)CO (stereo not given)	normalized growth	0.987
CC(=O)Oc1c(C)cccc1C(=O)O	normalized growth	1.02
COC(=O)[C@@H]1OC(=O)[C@H]2O[C@@]23[C@@]1(C)CCC1[C@@]2(C)CCC(=O)C(C)(C)C2C[C@@H](OC(C)=O)[C@]13C (stereo not given in full)	normalized growth	0.993
NC[C@@H]1CC[C@@H](N)[C@@H](O[C@H]2[C@H](O)[C@@H](O[C@H]3O[C@H](CO)[C@@H](O)[C@H](N)[C@H]3O)[C@H](N)C[C@@H]2N)O1	normalized growth	1
CCN(CC)CCOC(=O)c1ccc(N)cc1	normalized growth	1
COC(=O)C(C)c1ccc(C(=O)c2cccs2)cc1 (stereo not given)	normalized growth	0.975
COc1cc2occ(-c3ccccc3)c(=O)c2c(OC)c1C	normalized growth	0.934
O=C(C1CCCCC1)N1CC(=O)N2CCc3ccccc3C2C1 (stereo not given)	normalized growth	1.03
CCCCNc1ccc(C(=O)OCCN(C)C)cc1	normalized growth	1.01
CC(C)COCC(CN(Cc1ccccc1)c1ccccc1)N1CCCC1 (stereo not given)	normalized growth	0.929
C#CCCCCCCCCCCCC(O)CC(O)COC(C)=O (stereo not given)	normalized growth	0.916
C=C1C(=O)OC2CC1C(OC(C)=O)C/C(C)=C/CC/C(C)=C/CC[C@]2(C)O (stereo not given in full)	normalized growth	1.03
CC(C(=O)O)c1ccc(C(=O)c2cccs2)cc1 (stereo not given)	normalized growth	1
O=c1cc[nH]c(=S)[nH]1	normalized growth	1.01
O=C(Cn1ccnc1[N+](=O)[O-])NCCO	normalized growth	1.01
C/C1=C\CCC(=O)C2CC(C)(C)C2CC1 (stereo not given)	normalized growth	1
NC(N)=NS(=O)(=O)c1ccc(N)cc1	normalized growth	0.995
CCCCOC(=O)c1ccccc1C(=O)OCc1ccccc1	normalized growth	0.971
Cc1cc(NC(=O)C2=C(O)c3ccccc3S(=O)(=O)N2C)no1	normalized growth	1.01
COc1cc(-c2coc3cc(OCc4ccccc4)c(OC)c(O)c3c2=O)cc(OCc2ccccc2)c1OC	normalized growth	0.991
Nc1nc2ncc(=O)[nH]c2c(=O)[nH]1	normalized growth	0.998
CC1OC1P(=O)(O)O (stereo not given)	normalized growth	1
NS(=O)(=O)c1cc2c(cc1Cl)NC(C(Cl)Cl)NS2(=O)=O (stereo not given)	normalized growth	1.01
C=CCSCC1Nc2cc(Cl)c(S(N)(=O)=O)cc2S(=O)(=O)N1 (stereo not given)	normalized growth	1.01
CCC(C)(C)C(=O)O[C@H]1C[C@@H](C)C=C2C=C[C@H](C)[C@H](CC[C@@H]3C[C@@H](O)CC(=O)O3)[C@H]21	normalized growth	1.04
CC(=O)OC1CCC2(C)C(=CC=C3C2CCC2(C)C3CCC2C(C)/C=C/C(C)C(C)C)C1(C)C (stereo not given)	normalized growth	0.974
CC[N+](CC)(CC)CCOc1cccc(OCC[N+](CC)(CC)CC)c1OCC[N+](CC)(CC)CC	normalized growth	0.996
CC1(C)C2(Cl)C(Cl)C(Cl)C(Cl)(C(Cl)Cl)C1(Cl)C2Cl (stereo not given)	normalized growth	0.993
O=C1[C@H](CCC(O)c2ccc(F)cc2)[C@@H](c2ccc(O)cc2)N1c1ccc(F)cc1 (stereo not given in full)	normalized growth	0.981
Cc1cc(-c2ccccc2)nnc1NCCN1CCOCC1	normalized growth	0.977
OCc1ccccc1O	normalized growth	0.987
C[C@@H]1C(=O)OC2[C@H](O)C34[C@@H]5OC(=O)[C@@]3(O[C@@H]3OC(=O)[C@H](O)[C@@]34[C@H](C(C)(C)C)[C@H]5O)[C@]21O (stereo not given in full)	normalized growth	1.01
NC(=O)c1cccc(N)c1	normalized growth	0.987
CCCCOC(=O)c1ccccc1C(=O)OCCCC	normalized growth	0.984
C#CCCCCCCCCCCCC(=O)CC(O)COC(C)=O (stereo not given)	normalized growth	0.881
CCCCN(CCCC)CCCOC(=O)c1ccc(N)cc1	normalized growth	0.986
CCCCN1CCCCC1C(=O)Nc1c(C)cccc1C (stereo not given)	normalized growth	1
CC(C)(C)CC(C)(C)c1ccc(O)c(Cc2ccc(Cl)cc2Cl)c1	normalized growth	0.997
CC(C)NNC(=O)c1ccncc1	normalized growth	1.01

Source listed as PubChem BioAssay AID1159580.
